Tested on: HSC-2 (Oral Cavity Carcinoma);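 note: after 72 h of two-drug dosing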
assay info: Bliss excess, mean over the matrix (fraction); higher = more synergy
Values of Bliss excess greater than or equal to -0.01 map to y; values below map to n.

Here are 6 molecules together with their reported answers.
{"molecule": "COc1cccc(OCCCN)c1-c1cc(Nc2cnc(C#N)cn2)n[nH]1 [Prexasertib] + Cc1cc2ncnn2cc1Nc1ncc2c(n1)n(C1CCOCC1)c(=O)n2C [AZD7648] (first compound max 1 µM, 7x7, partner max 10 µM)", "group": "n"}
{"molecule": "O=C(c1cc(Cc2n[nH]c(=O)c3ccccc23)ccc1F)N1CCN(C(=O)C2CC2)CC1 [Olaparib] + COc1nnc2ccc(N3CCC(c4ccc(OCCN5CCN(C)C(=O)[C@H]5C)cc4)CC3)nn12 [AZD5153] (first compound max 10 µM, 7x7, partner max 1 µM)", "group": "n"}
{"molecule": "COc1nnc2ccc(N3CCC(c4ccc(OCCN5CCN(C)C(=O)[C@H]5C)cc4)CC3)nn12 [AZD5153] + CCN(CCO)CCCOc1ccc2c(Nc3cc(CC(=O)Nc4cccc(F)c4)[nH]n3)ncnc2c1 [AZD2811] (first compound max 1 µM, 7x7, partner max 1 µM)", "group": "n"}
{"molecule": "NC1(C(=O)N[C@@H](CCO)c2ccc(Cl)cc2)CCN(c2ncnc3[nH]ccc23)CC1 [Capivasertib] + Cn1cnc2c(F)c(Nc3ccc(Br)cc3Cl)c(C(=O)NOCCO)cc21 [Selumetinib] (first compound max 10 µM, 7x7, partner max 10 µM)", "group": "y"}
{"molecule": "N#Cc1cnc(Nc2cc(NC[C@H]3CNCCO3)c(C(F)(F)F)cn2)cn1 [SRA737] + C=CCn1c(=O)c2cnc(Nc3ccc(N4CCN(C)CC4)cc3)nc2n1-c1cccc(C(C)(C)O)n1 [AZD1775] (first compound max 10 µM, partner max 1 µM)", "group": "y"}
{"molecule": "Cc1c2c(nn1C)CSCc1cc(n(C)n1)CSc1cc(c3ccccc3c1)OCCCc1c(C(=O)O)n(C)c3c-2c(Cl)ccc13 [AZD5991] + CC1(C)CCC(CN2CCN(c3ccc(C(=O)NS(=O)(=O)c4ccc(NCC5CCOCC5)c([N+](=O)[O-])c4)c(Oc4cnc5[nH]ccc5c4)c3)CC2)=C(c2ccc(Cl)cc2)C1 [Venetoclax] (first compound max 1 µM, 7x7, partner max 1 µM)", "group": "y"}

Then there is this molecule:
Check this molecule for Bliss excess at or above -0.01: Cn1cnc2c(F)c(Nc3ccc(Br)cc3Cl)c(C(=O)NOCCO)cc21 [Selumetinib] + CC(C)n1c(=O)n(C)c2cnc3cc(F)c(-c4ccc(OCCCN5CCCCC5)nc4)cc3c21 [AZD1390] (first compound max 10 µM, 7x7, partner max 0.3 µM)
n

* * *

System: SNU-C1 (Colorectal Carcinoma)
assay info: combination Emax (second highest fraction inhibited in the dose matrix, 72 h); higher = more inhibition; extreme values may be limits of the assay
test readout: combination Emax
# output: bare number, no unit

{"molecule": "CN(CCO)CC[C@H](CSc1ccccc1)Nc1ccc(S(=O)(=O)NC(=O)c2ccc(N3CCC([C@@H](O)c4ccccc4-c4ccc(Cl)cc4)CC3)cc2)cc1S(=O)(=O)C(F)(F)F [AZD4320] + CN(C)CCCOc1ccc(-c2ccc3ncc4c(c3c2)n(C2CCOCC2)c(=O)n4C)cn1 [AZD0156] (first compound max 1 µM, 7x7, partner max 1 µM)", "combination Emax": 0.439}
{"molecule": "Cc1c2c(nn1C)CSCc1cc(n(C)n1)CSc1cc(c3ccccc3c1)OCCCc1c(C(=O)O)n(C)c3c-2c(Cl)ccc13 [AZD5991] + CC1(C)CCC(CN2CCN(c3ccc(C(=O)NS(=O)(=O)c4ccc(NCC5CCOCC5)c([N+](=O)[O-])c4)c(Oc4cnc5[nH]ccc5c4)c3)CC2)=C(c2ccc(Cl)cc2)C1 [Venetoclax] (first compound max 1 µM, 7x7, partner max 1 µM)", "combination Emax": 0.574}

Specify combination Emax for C[C@@H](Oc1cc(-c2cnn(C3CCNCC3)c2)cnc1N)c1c(Cl)ccc(F)c1Cl [Crizotinib] + Cn1cnc2c(F)c(Nc3ccc(Br)cc3Cl)c(C(=O)NOCCO)cc21 [Selumetinib] (first compound max 10 µM, 7x7, partner max 10 µM) and stop.
0.892
